# credit: the DeepSol protein solubility set

Assay: soluble on expression in E. coli; label from the status in PepcDB or PDB records
readout-kind: soluble on expression in E. coli

INSERT INTO measurements (residue_codes, readout_kind, test_result) VALUES
  ('MGSDKIHHHHHHMTAANTQHVEHINECTLESVIDLIRDADKPMVFKGLCHHWPLVQAGLESAQSAMTYLRQFYQGMPVTAYYVPPEQHGRVFYNEQLDGFNYQAGRLDFNQLLDRLSQEMIKDMPAGMYMGSTDIHQCLPGLGAQNSLDLAPMQPLTSIWLGNQTKVAAHYDFPLNLACNVVGKRTFTLFPPEQISNLYVGPMELAPGGQDISLVDMANPDFERFPRFQHALDASLTAELSPGDVLFIPSMWWHHVRGVDDFNVLITHWWRDTPGFLGRPNNALLHSILSLRSLPKAQRQAWKSIFEHYIFDHDDVDDSHIPDNVKGMQTKPLDELTARKIRADLINKLKR', 'soluble on expression in E. coli', 'not soluble'),
  ('MGSDKIHHHHHHMRTHGWNSTCVNRPSGSANSRRLVAHGNGWQTIDMDFAARYVALGDSFTEGVGDDDPARPNGVRGWADRVAEQLGAADPAFGYANLAIRGRKLRQIMAEQVDAAIELKPTLVTIYAGANDILRPKVDIDDLLAEYDAGIRKLSATGATVVMFTGFDARGSKVFGTMRGRTAIYNELVRGIAGDHGALLVDYWRFSEYYDWGMWAKDRMHMSAAGHANMAKRVLTVLEHDHSIDVPPMTPVPELSRADAIRANARWVREFAGPWVVRRVTGKSSGDGLQPRYSQLTRL', 'soluble on expression in E. coli', 'not soluble'),
  ('MREINMILYIHIPFCENKCGYCAFNSYENKHGLKEEYTQALCLDLKHALSQTDEPIESVFIGGGTPNTLSVKAFERIFESIYQHASLSLDCEITTEANPELITKAWCQGLKGLGINRLSLGVQSFREDKLLFLERQHSKNIAPAIETILKSGIENISIDLIYNTPLDNENSLKEELKLAKELPINHLSAYALSVEKNTNLEKNAKKPSCAHFDNVVREILEGFSFKQYEVSNYARNYQVKHNLAYWGAKDYLGCGAGAVGCVANERFFAKKLIENYIKDPLQRQVETLNKQDKRLEKLFLGLRCVLGVELSFLDENKVKFLIEENKAFIKNNRLIASDFFMADEMALWLLLEHHHHHH', 'soluble on expression in E. coli', 'not soluble'),
  ('MAHHHHHHMGRNNKMRSKPSDNVAWYDKGPVEWLPRPVRLTYDQLDQLRDWMMRETIAGRTEEFNKIRHLHREWSQHPLMPVLGDVEPKFPLNLYKQNHRAKRRFLVRWHKANSPTYWMWMPRGPAVATPLHRSSPSQFPEHWKSLARTSSSSSSSGSSSAAP', 'soluble on expression in E. coli', 'soluble'),
  ('MGSDKIHHHHHHMSFKKSELLNVLDMAFKKEFGKGLSLISPQWGLIAMKISSSTKTNTYGWLGFFPKMREWVGERQIKKMQAQAMSIENKTFESTVSISRTDIEDDQAGLFAPVVQQAGQSAAELPDDLVFSLLAKGKSTLCYDGQNFFDTDHPVYENVDGTGSHKEQSNLTTGSASEHPTFYILDDTNAIKPFIWQERSAPEIETKFDPSRSDKVFMEDVYLWGVRARGNAGFGFWQLIHCVEETELTADAVMKVLAQMRMLKGDGGKLLNIRPSTILVPPALEFKARQLFEAEIINGSTNPLKGVLKVAVSAQIATA', 'soluble on expression in E. coli', 'not soluble');

Looking for the measured soluble on expression in E. coli of MNLPKKVRLVEVGPRDGLQNEKQPIEVADKIRLVDDLSAAGLDYIEVGSFVSPKWVPQMAGSAEVFAGIRQRPGVTYAALAPNLKGFEAALESGVKEVAVFAAASEAFSQRNINCSIKDSLERFVPVLEAARQHQVRVRGYISCVLGCPYDGDVDPRQVAWVARELQQMGCYEVSLGDTIGVGTAGATRRLIEAVASEVPRERLAGHFHDTYGQALANIYASLLEGIAVFDSSVAGLGGCPYAKGATGNVASEDVLYLLNGLEIHTGVDMHALVDAGQRICAVLGKSNGSRAAKALLAKA , can you help?
soluble

What value of soluble on expression in E. coli has been reported for the following sequence? ANGFHYTVGFNLSDYQSEVTKFDNESKELGNWYVGQKQGEIWGYETYGLFQSEQEIAGAANQDKVSGGIKLMPGDIRFVDRNNDGVIDWGDNTVDNPGDKKIIGNSTPRYHYGINLGADWKGFDLGIFFQGVGKRDLYLPGTSFRSHYGSEWQVPSAYNNDYWTEENTGAYFPRARFNGGSAINQAQTRYMVDASYCRLKSLSIGYTLPKVLTQKASIEKIRIYFTGENLFTISDTPDGLDPELDNPYTYPMQRSLSVGLSLTF
not soluble

Could you share which soluble on expression in E. coli value was measured for MGSDKIHHHHHHVNDGSNDFELLGSPWICENPHANWTAPAAHGMFKRFKKKEIIIHSGDQIDYIYYLHKGRIKTVAQSPSGSQKILWYIEAGSIFGETPFFNRKPCDYNFFAVTDCEIYIYPMEVIMQEIIPKFPDLTLSIIKTLSRKVHILSTQVEDCVFNKPLVRVAKLIYLLHQGRILEDKRGSSSIPLTQEDIANTLGMHRVTVNQALKHLKEIQALKEHTHLIIIHDPEKLKEVMEA ?
not soluble

# soluble on expression in E. coli lookup, item MGSDKIHHHHHHMSVVIGYYGKNGAVIAGDKRNLLFNGIESNRAKLEEVLYSGEIKNDEELFKKASEFEVTVHINDTREKVKSLGNLLSGEVVSIGKDSKRRRMYLTKEKCAIIDIENDQITNKSVKTGSGIVVFGNRYVKHFVESEIKKHVQKLLKMSAREIRDLFEKILKNIENATLSDTFEYYVVEAGEPEFEKAVNKDLDDLFNYRHDLSIKMAEMQILTMIAEKIVKIGDVGVIKNGTLVLYDEFLAINKICPEPEIYSEIEITGEFIEGDIITIDNESLKVKRTGSPVAVQKIICKK
not soluble

Recorded soluble on expression in E. coli of MPRTVTHNPDSPNNDDVLAASEKWDACKPPYTSAHMKICVAAAKIILAASGVARCSKYEKENYLRIDFSKAGKVTFYAEFPKKMGLKGKKLGEWPELVIQLAREKALGMADGGLRAESVHAALEMYRDDPKPK , please.
not soluble

Recorded soluble on expression in E. coli for MNIAKIVREAREQSRLTTLDFATGIFDEFIQLHGDRSFRDDGAVVGGIGWLGDQAVTVVGIQKGKSLQDNLKRNFGQPHPEGYRKALRLMKQAEKFGRPVVTFINTAGAYPGVGAEERGQGEAIARNLMEMSDLKVPIIAIIIGEGGSGGALALAVADRVWMLENSIYAILSPEGFASILWKDGTRAMEAAELMKITSHELLEMDVVDKVISEIGLSSKELIKSVKKELQTELARLSQKPLEELLEERYQRFRKY , please?
not soluble
